// data source = patent US20230029835A1

- TARGET_ENTITY: T1, human TSLP recombinant protein (human, UniProt Q969D9 29-159, biotinylated in the blocking and cell-binding assays (sites not given))
- T1 construct: also called biotinylated human TSLP protein
- METHOD: competition ELISA, biotin-human TSLP to coated human TSLPR-Fc
ASSAY_READOUT: pIC50
Expect pIC50 as a plain number equal to -log10 of the molar concentration.

# example entries with known answers
[[record]]
binder = "Ab19 (antibody, V domains shown, Humanized; also called h71G4VHv1/h71G4VKv1) VH: QVQLVQSGAEVKKPGSSVKVSCKASGYTFTDYWMHWVRQAPGQGLEWMGTIDNSDSDTTYNPSFQGHVTISADKSISTAYLQWSSLKASDTAMYYCARSVDGYLDYWGQGTLVTVSS VL: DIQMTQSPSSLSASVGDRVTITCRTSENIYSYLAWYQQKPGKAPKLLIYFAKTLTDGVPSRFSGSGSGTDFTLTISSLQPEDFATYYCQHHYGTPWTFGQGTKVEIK"
endpoint_result = 8.56

[[record]]
binder = "Ab22 (antibody, V domains shown, Humanized; also called h39G5VHv1/h71G4VKv1; h39G5VHv1/h7IG4VKv1 hIgG1) VH: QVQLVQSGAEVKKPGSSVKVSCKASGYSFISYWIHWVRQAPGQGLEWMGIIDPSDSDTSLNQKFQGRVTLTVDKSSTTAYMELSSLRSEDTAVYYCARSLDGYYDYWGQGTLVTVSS VL: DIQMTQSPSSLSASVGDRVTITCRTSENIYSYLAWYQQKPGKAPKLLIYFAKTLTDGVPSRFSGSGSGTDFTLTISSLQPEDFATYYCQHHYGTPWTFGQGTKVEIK"
endpoint_result = 8.74

[[record]]
binder = "Ab25 (antibody, V domains shown, Humanized; also called h39G5VHv6/h71G4VKv1) VH: QVQLVQSGAEVKKPGSSVKVSCKASGYTFTDYWMHWVRQAPGQGLEWMGTIDNSDSDTSLNQKFQGRVTLTVDTSTSTAYMELSSLRSEDTAVYYCARSLDGYYDYWGQGTLVTVSS VL: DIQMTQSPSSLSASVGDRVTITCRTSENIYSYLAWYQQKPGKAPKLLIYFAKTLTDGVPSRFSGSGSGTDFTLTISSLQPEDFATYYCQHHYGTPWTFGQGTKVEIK"
endpoint_result = 8.74


Record request: pIC50 value, item Ab26 (antibody, V domains shown, Humanized; also called h39G5VHv10/h71G4VKv1; h39G5VHv10/h71G4VKv1 hIgG1) VH: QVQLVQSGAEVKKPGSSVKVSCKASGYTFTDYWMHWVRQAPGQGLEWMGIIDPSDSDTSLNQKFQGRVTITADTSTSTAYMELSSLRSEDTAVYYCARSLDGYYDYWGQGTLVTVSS VL: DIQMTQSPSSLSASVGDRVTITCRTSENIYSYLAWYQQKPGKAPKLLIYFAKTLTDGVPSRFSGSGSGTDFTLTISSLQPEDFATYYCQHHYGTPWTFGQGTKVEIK 8.78

Record request: pIC50 value, item Ab13 (antibody, V domains shown, Humanized; also called h39G5VHv13/h39G5VKv1) VH: EVQLVQSGAEVKKPGESLKISCKASGYTFTDYWMHWVRQMPGKGLEWMGIIDPSDSDTSLNQSFQGHVTISADKSISTAYLQWSSLKASDTAMYYCARSLDGYYDYWGQGTLVTVSS VL: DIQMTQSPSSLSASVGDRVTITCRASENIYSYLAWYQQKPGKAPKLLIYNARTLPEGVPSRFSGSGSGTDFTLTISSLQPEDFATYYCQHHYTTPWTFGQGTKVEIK 8.96
